# experimentalProtocol: log P by HPLC
# Format: physicochemical
# experimentalConditions: EEC directive 79/831 Annex V. A8 by HPLC (gradient method, acetonitrile/0.1% aqueous phosphoric acid)
observationType: logP

The cases that follow already have their logP on record.
C#CCN(C)c1c(-c2c(F)cccc2Cl)c(Cl)nc2nc(C)nn12    2.77
CCCCONc1c(-c2ccccc2F)c(Cl)nc2nc(C)nn12    2.98

1: Cc1nc2nc(Cl)c(-c3c(F)cccc3F)c(N3CCC(C)(C)CC3)n2n1
2: COCCN(C)c1c(-c2ccc(F)cc2F)c(Cl)nc2nc(C)nn12
Qu. Form field 'greater logP' accepts 1 or 2 ; which applies? Answer = label.
Ans. 1
(1: 3.91, 2: 2.58)

* * *

# experimentalProtocol: log P by HPLC
# Type: physicochemical
# experimentalConditions: HPLC, gradient method, acetonitrile/0.1% aqueous phosphoric acid; EEC directive 79/831 Annex V. A8
observationType: logP

The cases that follow already have their logP on record.
C=C(C)CN(CC)c1c(-c2c(F)cccc2Cl)c(Cl)nc2nc(C)nn12 [compound 114]    3.91
Cc1nc2nc(Cl)c(-c3ccccc3Cl)c(NC3CCCC3)n2n1 [compound 213]    3.28
COCCN(C)c1c(-c2ccc(F)cc2Cl)c(Cl)nc2nc(C3CC3)nn12 [compound 628]    3.46
Fc1cccc(Cl)c1-c1c(Cl)nc2nc(C3CC3)nn2c1N1CCOCC1 [compound 709]    3.05
CC1CCCN1c1c(-c2c(F)cccc2F)c(Cl)nc2nc(C3CC3)nn12 (centres unmarked) [compound 678]    3.68

P: Cc1nc2nc(Cl)c(-c3c(F)cccc3Cl)c(NC(C)C)n2n1 [compound 256]
Q: Cc1ccccc1Nc1c(-c2ccc(F)cc2F)c(Cl)nc2nc(C(F)(F)F)nn12 [compound 811]
Qu. Form field 'greater logP' accepts P or Q ; which applies? Answer = label.
Ans. Q

* * *

# experimentalProtocol: log P by HPLC
# Assay type: physicochemical
# experimentalConditions: HPLC, gradient method, acetonitrile/0.1% aqueous phosphoric acid; EEC directive 79/831 Annex V. A8
observationType: chromatographic logP

C[C@H](Nc1c(-c2c(F)cc(F)cc2F)c(Cl)nc2nc(C(F)(F)F)nn12)C(F)(F)F    3.94
Fc1cc(F)c(-c2c(Cl)nc3nc(C(F)(F)F)nn3c2NCC(F)(F)F)c(F)c1    3.64
CCc1nc2nc(Cl)c(-c3c(F)cc(F)cc3F)c(N[C@@H](C)C(F)(F)F)n2n1    3.39
Fc1cc(F)c(-c2c(Cl)nc3nc(C(F)(F)F)nn3c2NCCC(F)(F)F)c(F)c1    3.76

* * *

# experimentalProtocol: log P by HPLC
# Type: physicochemical
# experimentalConditions: HPLC, gradient method, acetonitrile/0.1% aqueous phosphoric acid; EEC directive 79/831 Annex V. A8
observationType: logP

The cases that follow already have their logP on record.
CN(CCC#N)c1c(-c2ccc(F)cc2F)c(Cl)nc2nc(C3CC3)nn12 [compound 718]    2.79
Cc1nc2nc(Cl)c(-c3ccccc3Cl)c(N(C)Cc3ccco3)n2n1 [compound 238]    3.2

P: CC(C)C(C)Nc1c(-c2c(F)cccc2F)c(Cl)nc2nc(C3CC3)nn12 (stereo not drawn) [compound 751]
Q: Cc1nc2nc(Cl)c(-c3ccccc3Cl)c(N3CCOCC3)n2n1 [compound 234]
Qu. Lab log: flag the item ( P or Q ) with the smaller logP figure. Answer = label.
Ans. Q

* * *

# experimentalProtocol: log P by HPLC
# Format: physicochemical
# experimentalConditions: HPLC, gradient method, acetonitrile/0.1% aqueous phosphoric acid; EEC directive 79/831 Annex V. A8
observationType: logP

The cases that follow already have their logP on record.
COC(CN(C)c1c(-c2ccc(F)cc2F)c(Cl)nc2nc(C3CC3)nn12)OC    3.24
CC(C)CC(C)Nc1c(-c2ccc(F)cc2F)c(Cl)nc2nc(C(F)(F)F)nn12 (stereo not shown)    4.73

A: Cc1nc2nc(Cl)c(-c3c(F)cc(F)cc3F)c(N(C)C)n2n1
B: C=C(C)CN(CC)c1c(-c2ccccc2Cl)c(Cl)nc2nc(C)nn12
Qu. Form field 'greater logP' accepts A or B ; which applies? Answer = label.
Ans. B

* * *

# experimentalProtocol: log P by HPLC
# Assay type: physicochemical
# experimentalConditions: HPLC, gradient method, acetonitrile/0.1% aqueous phosphoric acid; EEC directive 79/831 Annex V. A8
observationType: logP

CCN(CCN(C)C)c1c(-c2ccc(F)cc2F)c(Cl)nc2nc(C(F)(F)F)nn12 [compound 547]    1.91
CC(C)CNc1c(-c2ccc(F)cc2Cl)c(Cl)nc2nc(C3CC3)nn12 [compound 621]    3.9
CC(C)C(C)Nc1c(-c2c(F)cc(F)cc2F)c(Cl)nc2nc(C3CC3)nn12 (centres unmarked) [compound 581]    4.03

1: CC1CCN(c2c(-c3c(F)cccc3F)c(Cl)nc3nc(C4CC4)nn23)CC1 [compound 681]
2: Cc1nc2nc(Cl)c(-c3c(F)cc(F)cc3F)c(NC(C)CO)n2n1 (centres unmarked) [compound 122]
Qu. Form field 'greater logP' accepts 1 or 2 ; which applies? Answer = label.
Ans. 1

* * *

# experimentalProtocol: log P by HPLC
# Format: physicochemical
# experimentalConditions: EEC directive 79/831 Annex V. A8 by HPLC (gradient method, acetonitrile/0.1% aqueous phosphoric acid)
observationType: logP

Cc1nc2nc(Cl)c(-c3ccccc3F)c(NC3CCCCC3C(F)(F)F)n2n1 (stereo not shown) [compound 398]    3.49
CON(C)c1c(-c2ccccc2F)c(Cl)nc2nc(C)nn12 [compound 377]    2.5
Cc1nc2nc(Cl)c(-c3ccccc3F)c(NOCc3ccccc3Cl)n2n1 [compound 366]    3.21
Cc1nc2nc(Cl)c(-c3c(F)cccc3F)c(N3CCC(NC(=O)OC(C)(C)C)CC3)n2n1 [compound 321]    3.15
CC(=O)NC1CCN(c2c(-c3ccc(F)cc3F)c(Cl)nc3nc(C4CC4)nn23)CC1 [compound 516]    2.2

I: CC(=O)NC1CCN(c2c(-c3c(F)cccc3F)c(Cl)nc3nc(C)nn23)CC1 [compound 323]
II: Cc1nc2nc(Cl)c(-c3c(F)cccc3F)c(NOCc3ccccc3)n2n1 [compound 427]
III: CC1CCCCN1c1c(-c2ccccc2Cl)c(Cl)nc2nc(C3CC3)nn12 (stereo not shown) [compound 499]
Qu. Put the entries in order of logP, starting with the largest number. When ranking, write the labels in the order the request describes.
Ans. III, II, I

1: Cc1nc2nc(Cl)c(-c3c(F)cc(F)cc3F)c(N(C)CC3CC3(Cl)Cl)n2n1 (stereo not shown) [compound 502]
2: CONc1c(-c2c(F)cccc2F)c(Cl)nc2nc(C)nn12 [compound 436]
Qu. Form field 'greater logP' accepts 1 or 2 ; which applies? Answer = label.
Ans. 1
(1: 3.68, 2: 2.07)

* * *

# experimentalProtocol: log P by HPLC
# Format: physicochemical
# experimentalConditions: HPLC, gradient method, acetonitrile/0.1% aqueous phosphoric acid; EEC directive 79/831 Annex V. A8
observationType: logP

COC(=O)C(CO)Nc1c(-c2c(F)cc(F)cc2F)c(Cl)nc2nc(C)nn12 (stereo not shown)    1.93
C=CCN(CC)c1c(-c2ccc(F)cc2F)c(Cl)nc2nc(C)nn12    3.35
Cc1nc2nc(Cl)c(-c3c(F)cc(F)cc3F)c(NCC3CC3)n2n1    2.86

1: Cc1nc2nc(Cl)c(-c3ccc(F)c(Cl)c3)c(NC(C)C(F)(F)F)n2n1 (stereo not shown)
2: Cc1nc2nc(Cl)c(-c3ccccc3Cl)c(N3CCC(O)C3)n2n1 (stereo not shown)
3: CN1CCN(c2c(-c3ccc(F)cc3F)c(Cl)nc3nc(C(F)(F)F)nn23)CC1
4: CC1CC(C)CN(c2c(-c3ccc(F)cc3F)c(Cl)nc3nc(C(F)(F)F)nn23)C1 (stereo not shown)
Qu. Put the entries in order of logP, starting with the largest number. When ranking, write the labels in the order the request describes.
Ans. 4, 1, 3, 2

* * *

# experimentalProtocol: log P by HPLC
# Type: physicochemical
# experimentalConditions: EEC directive 79/831 Annex V. A8 by HPLC (gradient method, acetonitrile/0.1% aqueous phosphoric acid)
observationType: logP

The cases that follow already have their logP on record.
C=CC(C)Nc1c(-c2c(F)cc(F)cc2F)c(Cl)nc2nc(C)nn12 (centres unmarked) [compound 417]    2.85
Cc1nc2nc(Cl)c(-c3ccccc3F)c(NC3CCC(C(F)(F)F)CC3)n2n1 (centres unmarked) [compound 400]    3.48
Cc1ccc(Nc2c(-c3c(F)cccc3F)c(Cl)nc3nc(C)nn23)cc1 [compound 444]    3.01
C=C(C)CN(C)c1c(-c2ccccc2Cl)c(Cl)nc2nc(C3CC3)nn12 [compound 496]    4.32
CC1=CCCN(c2c(-c3c(F)cccc3F)c(Cl)nc3nc(C)nn23)C1 [compound 317]    3.39

a: CC1=CCCN(c2c(-c3ccc(F)cc3F)c(Cl)nc3nc(C4CC4)nn23)C1 [compound 512]
b: CCN(CCC#N)c1c(-c2ccc(F)cc2F)c(Cl)nc2nc(C)nn12 [compound 413]
c: Cc1nc2nc(Cl)c(-c3c(F)cccc3F)c(N3CCN(C)CC3)n2n1 [compound 324]
Qu. Arrange the 3 entries by logP so the values rise. When ranking, write the labels in the order the request describes.
Ans. c, b, a
(c: 1.12, b: 2.58, a: 4.14)

a: Cc1nc2nc(Cl)c(-c3ccccc3F)c(NC3CCCCC3)n2n1 [compound 397]
b: Cc1nc2nc(Cl)c(-c3ccc(F)cc3F)c(N3CCC(O)CC3)n2n1 [compound 282]
Qu. Form field 'greater logP' accepts a or b ; which applies? Answer = label.
Ans. a

The measured values listed here are drawn from patent US7186831B2.
